# tgt: Fyn (UniProt P06241)
# Sequence (P06241 whole entry, looked up): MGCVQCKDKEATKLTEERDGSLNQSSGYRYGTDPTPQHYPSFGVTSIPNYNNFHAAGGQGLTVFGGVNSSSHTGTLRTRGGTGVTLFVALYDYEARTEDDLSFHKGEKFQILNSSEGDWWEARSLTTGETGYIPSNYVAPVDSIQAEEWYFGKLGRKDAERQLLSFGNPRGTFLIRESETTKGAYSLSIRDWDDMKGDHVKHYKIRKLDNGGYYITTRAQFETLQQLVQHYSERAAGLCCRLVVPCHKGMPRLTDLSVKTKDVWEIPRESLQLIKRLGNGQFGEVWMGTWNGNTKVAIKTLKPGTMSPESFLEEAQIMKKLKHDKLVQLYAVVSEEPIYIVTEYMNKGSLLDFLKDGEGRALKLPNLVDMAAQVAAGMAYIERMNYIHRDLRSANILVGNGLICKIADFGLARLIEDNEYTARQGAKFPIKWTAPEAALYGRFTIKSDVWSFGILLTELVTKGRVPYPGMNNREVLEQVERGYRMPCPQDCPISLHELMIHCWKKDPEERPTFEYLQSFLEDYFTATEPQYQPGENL
# assay summary: phosphorylation enrichment, bacterial display (enrichment ratio); higher = better substrate or ligand; peptides without Tyr show the background;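 note: 11-residue human phosphosite peptides and single-mutation variants displayed on the E. coli surface, counted by deep sequencing, each peptide's frequency after selection divided by its frequency in the unselected input library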;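 note: frequency after pTyr selection over input frequency; kinase dosed for 20-30% of maximal phosphorylation in three min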
Is phosphorylation enrichment at least 1? Then yes (1). If not, no (0).

{"columns": ["ordered residues", "cat"],
 "data": [
  ["EEAAGCAQESQ [CAMKV_Y491_Y491C]", "no (0)"],
  ["YPSLPYSPVSS [CAMKK2_Y128_C123Y]", "no (0)"],
  ["ASTHIYQIMNH [ITK_Y588_V587I]", "yes (1)"],
  ["CGSLLYGLVHQ [PRKCG_Y122]", "yes (1)"],
  ["IRKTEYPFSSE [ATP2C1_Y452_A450T]", "no (0)"],
  ["SEPDLYFDPRG [PKP1_Y160_C161Y_YF]", "yes (1)"],
  ["SRFQFYFQQKG [CHKB_Y381]", "no (0)"]
]}

###

Recorded phosphorylation enrichment values for a group of sequences are listed next.
# tgt: FGFR3 (UniProt P22607)
# Sequence (P22607 whole entry, looked up): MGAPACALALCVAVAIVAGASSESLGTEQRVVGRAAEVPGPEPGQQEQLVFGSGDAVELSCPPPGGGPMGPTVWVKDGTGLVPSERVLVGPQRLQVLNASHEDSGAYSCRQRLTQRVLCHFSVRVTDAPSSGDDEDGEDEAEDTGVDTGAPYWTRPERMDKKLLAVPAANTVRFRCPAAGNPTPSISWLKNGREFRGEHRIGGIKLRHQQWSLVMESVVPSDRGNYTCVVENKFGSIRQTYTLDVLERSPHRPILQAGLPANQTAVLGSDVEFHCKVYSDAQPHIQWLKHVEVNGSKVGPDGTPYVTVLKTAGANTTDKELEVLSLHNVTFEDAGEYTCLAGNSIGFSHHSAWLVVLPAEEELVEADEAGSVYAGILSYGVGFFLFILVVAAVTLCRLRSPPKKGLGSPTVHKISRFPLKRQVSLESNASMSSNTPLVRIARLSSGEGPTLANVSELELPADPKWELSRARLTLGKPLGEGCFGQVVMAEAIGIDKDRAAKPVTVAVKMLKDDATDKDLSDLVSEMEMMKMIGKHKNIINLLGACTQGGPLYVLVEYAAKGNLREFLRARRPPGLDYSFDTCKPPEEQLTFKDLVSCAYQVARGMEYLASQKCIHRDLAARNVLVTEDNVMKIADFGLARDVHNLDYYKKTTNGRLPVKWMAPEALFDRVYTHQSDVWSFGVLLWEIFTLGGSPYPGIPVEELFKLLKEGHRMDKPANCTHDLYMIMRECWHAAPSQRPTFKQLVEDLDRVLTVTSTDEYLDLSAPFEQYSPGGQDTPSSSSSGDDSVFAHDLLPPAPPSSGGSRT
# assay summary: phosphorylation enrichment, bacterial display (enrichment ratio); higher = better substrate or ligand; peptides without Tyr show the background

{"columns": ["ordered residues", "phosphorylation enrichment"],
 "data": [
  ["SSQTVYQRVEG [TFR2_Y23]", 0.483],
  ["HQKKPYCHTHN [NRAP_Y53_A56T]", 3.53],
  ["FTRNYYVQAVL [CYBA_Y88_R90Q]", 2.67]
]}

###

# tgt: FGFR1 (UniProt P11362)
# Sequence (P11362 whole entry, looked up): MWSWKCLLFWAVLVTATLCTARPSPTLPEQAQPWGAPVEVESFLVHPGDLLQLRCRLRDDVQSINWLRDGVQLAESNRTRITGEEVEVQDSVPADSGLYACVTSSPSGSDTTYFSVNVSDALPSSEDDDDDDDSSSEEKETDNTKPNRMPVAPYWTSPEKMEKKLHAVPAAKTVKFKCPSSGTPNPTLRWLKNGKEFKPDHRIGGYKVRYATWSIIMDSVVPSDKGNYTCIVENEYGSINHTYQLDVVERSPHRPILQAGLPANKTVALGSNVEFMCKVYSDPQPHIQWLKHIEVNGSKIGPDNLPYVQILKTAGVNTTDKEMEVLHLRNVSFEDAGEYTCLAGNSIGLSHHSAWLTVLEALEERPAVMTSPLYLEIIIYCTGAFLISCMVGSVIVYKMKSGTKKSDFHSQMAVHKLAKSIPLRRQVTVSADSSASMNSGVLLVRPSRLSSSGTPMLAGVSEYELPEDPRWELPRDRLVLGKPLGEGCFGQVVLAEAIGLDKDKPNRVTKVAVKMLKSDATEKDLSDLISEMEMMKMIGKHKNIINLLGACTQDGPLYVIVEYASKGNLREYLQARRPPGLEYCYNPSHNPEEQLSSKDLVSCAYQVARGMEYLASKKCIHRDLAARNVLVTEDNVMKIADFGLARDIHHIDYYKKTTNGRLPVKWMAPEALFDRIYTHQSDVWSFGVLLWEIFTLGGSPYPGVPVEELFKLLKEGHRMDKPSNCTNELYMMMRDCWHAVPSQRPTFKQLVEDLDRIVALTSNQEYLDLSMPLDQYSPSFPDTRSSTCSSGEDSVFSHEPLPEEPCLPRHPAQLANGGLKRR
# assay summary: phosphorylation enrichment, bacterial display (enrichment ratio); higher = better substrate or ligand; peptides without Tyr show the background
Recorded phosphorylation enrichment values for a group of sequences are listed next.
observation type: phosphorylation enrichment

{"columns": ["ordered residues", "numeric result"],
 "data": [
  ["KRLAVYIDEEA [EPM2A_Y304_P301L]", 0.514],
  ["SVTCTYTPALN [TP53_Y126_S127T]", 0.5],
  ["SVTCAYSPALN [TP53_Y126_T125A]", 0.557],
  ["VDGSVYKLHPS [GCK_Y413]", 0.536],
  ["SEDSEYYRAFE [CASQ2_Y178_K180R]", 0.869],
  ["MTYVFYRENLR [NLRP14_Y443]", 0.653]
]}

###

# tgt: Hck (UniProt P08631)
# Sequence (P08631 whole entry, looked up): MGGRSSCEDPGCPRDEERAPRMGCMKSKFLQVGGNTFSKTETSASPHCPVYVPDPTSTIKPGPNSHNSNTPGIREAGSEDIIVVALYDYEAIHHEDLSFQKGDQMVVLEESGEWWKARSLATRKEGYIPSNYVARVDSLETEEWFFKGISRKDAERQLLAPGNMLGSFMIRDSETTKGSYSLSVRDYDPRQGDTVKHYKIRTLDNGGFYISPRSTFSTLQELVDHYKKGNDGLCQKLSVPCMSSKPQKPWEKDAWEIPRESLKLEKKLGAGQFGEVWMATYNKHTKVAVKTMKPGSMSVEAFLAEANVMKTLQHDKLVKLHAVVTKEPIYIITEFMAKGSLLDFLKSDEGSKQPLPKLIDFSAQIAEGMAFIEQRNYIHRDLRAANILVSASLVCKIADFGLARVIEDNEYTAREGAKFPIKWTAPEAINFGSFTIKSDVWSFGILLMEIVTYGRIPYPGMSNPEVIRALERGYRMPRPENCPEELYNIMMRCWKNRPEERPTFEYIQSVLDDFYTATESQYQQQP
# assay summary: phosphorylation enrichment, bacterial display (enrichment ratio); higher = better substrate or ligand; peptides without Tyr show the background

{"columns": ["ordered residues", "phosphorylation enrichment"],
 "data": [
  ["SVTCAYSPALN [TP53_Y126_T125A]", 0.608],
  ["DDSNLYINVKL [MTHFD1_Y52]", 0.607],
  ["SVTCTYTPALN [TP53_Y126_S127T]", 0.511],
  ["REAMEYLESKQ [BTK_Y511_C506R]", 0.505],
  ["RLSPEYKQNEI [GJB1_Y243]", 0.584],
  ["GETEQYVGGGG [FAT4_Y4980_A4977T]", 0.467],
  ["HQKKPYCHTHN [NRAP_Y53_A56T]", 1.13],
  ["PDDPDYSLVDD [PSTPIP2_Y323_N322D]", 0.707],
  ["RRIHSYRGHLW [VHL_Y112]", 2.59],
  ["DVLVEYQEEGR [GNS_Y416_G418E]", 0.661],
  ["EPNSRYTCKLE [USH2A_Y3745_Y3747C]", 0.549],
  ["RPGSGYTNIMR [PKLR_Y564]", 0.784],
  ["AGHEEYSAMRD [KRAS_Y64_Q61H]", 0.542],
  ["LGSVVYAHSKE [KCNQ2_Y226]", 0.403]
]}

###

# System: c-Src
# assay summary: phosphorylation enrichment, bacterial display (enrichment ratio); higher = better substrate or ligand; peptides without Tyr show the background
Is phosphorylation enrichment at least 0.4? Then T. If not, F.

{"columns": ["ordered residues", "cat"],
 "data": [
  ["AYRRGYFDEEM [PLEC_Y2971]", "F"],
  ["EKAEVYGSENE [RIOK2_Y348]", "T"],
  ["ELTAKYLNYYR [P3H4_Y181_Q186R]", "F"],
  ["SVGGLYRDMGA [CBX8_Y321_G317V]", "F"],
  ["CNPLCYPTIMI [OR6K6_Y160_R159C]", "T"],
  ["AAQNCYKVTNA [TPI1_Y105_G110A]", "T"],
  ["NMRSTYAKLAA [SEC22B_Y193_H190R]", "T"],
  ["SVVVPYESPEV [TP53_Y220_P222S]", "T"],
  ["SGFESYGSSSY [RPA2_Y9]", "T"],
  ["DEDFLYREELA [POR_Y575_YF]", "T"],
  ["VRFMANTDETF [F8_Y450_Y450N]", "T"],
  ["KRYRIYHLAIS [BRCA2_Y3009_T3013I]", "T"],
  ["VSRGRYRPQEC [B4GALT4_Y113]", "T"],
  ["SEKIVYGHLDD [ACO2_Y71]", "T"],
  ["ECKFLYSRKEG [PTPN11_Y263_L261F]", "T"],
  ["RLPNGYGLAYR [DLK1_Y262_S260N]", "T"],
  ["RGFRQDAFDGK [HLA-A_Y140_YF]", "T"],
  ["KLADMYGGGKD [CDH1_Y876_E880K]", "F"],
  ["PDGVEYLKNDP [GRIN3A_Y831]", "T"],
  ["ILDEAYVMASM [EGFR_Y764_V769M]", "T"],
  ["RPSELYFSKIS [SMG1_Y2253_G2258S_YF]", "T"],
  ["PLDGGYFTLQI [TP53_Y327_E326G]", "T"],
  ["TFEYRYLEDRD [CNOT3_Y746]", "T"],
  ["VNCHQYDGLVG [ATP2A2_Y407_E412G]", "T"],
  ["RAEAPYLLVSN [LRIG1_Y1054_Q1053P]", "T"]
]}

###

# tgt: EPHB1 (UniProt P54762)
# Sequence (P54762 whole entry, looked up): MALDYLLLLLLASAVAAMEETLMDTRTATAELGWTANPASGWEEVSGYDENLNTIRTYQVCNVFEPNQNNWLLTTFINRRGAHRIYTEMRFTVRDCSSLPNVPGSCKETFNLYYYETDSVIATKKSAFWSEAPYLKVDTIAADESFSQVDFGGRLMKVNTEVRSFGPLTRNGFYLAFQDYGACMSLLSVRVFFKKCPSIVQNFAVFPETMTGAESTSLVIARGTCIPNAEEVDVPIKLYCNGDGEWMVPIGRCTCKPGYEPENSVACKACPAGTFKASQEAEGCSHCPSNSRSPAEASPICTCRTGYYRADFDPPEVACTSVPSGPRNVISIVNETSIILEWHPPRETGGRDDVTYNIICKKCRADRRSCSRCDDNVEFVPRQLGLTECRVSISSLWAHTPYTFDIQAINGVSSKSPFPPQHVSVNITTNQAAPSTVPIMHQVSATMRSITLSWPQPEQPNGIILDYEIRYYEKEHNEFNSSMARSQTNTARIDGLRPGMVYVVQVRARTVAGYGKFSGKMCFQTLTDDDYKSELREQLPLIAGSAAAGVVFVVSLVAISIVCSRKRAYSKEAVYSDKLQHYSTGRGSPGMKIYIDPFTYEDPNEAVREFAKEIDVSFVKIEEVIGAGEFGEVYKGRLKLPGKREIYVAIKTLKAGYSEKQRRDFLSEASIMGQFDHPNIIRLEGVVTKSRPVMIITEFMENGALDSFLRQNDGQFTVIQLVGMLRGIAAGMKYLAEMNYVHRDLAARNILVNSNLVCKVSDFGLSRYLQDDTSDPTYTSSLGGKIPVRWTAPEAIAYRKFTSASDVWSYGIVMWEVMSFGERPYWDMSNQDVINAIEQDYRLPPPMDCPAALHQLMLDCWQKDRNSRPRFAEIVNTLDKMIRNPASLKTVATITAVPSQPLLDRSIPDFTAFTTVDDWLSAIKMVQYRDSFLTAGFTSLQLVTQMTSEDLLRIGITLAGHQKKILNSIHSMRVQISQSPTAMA
# assay summary: phosphorylation enrichment, bacterial display (enrichment ratio); higher = better substrate or ligand; peptides without Tyr show the background
Is phosphorylation enrichment at least 0.5? Then Yes. If not, No.

{"columns": ["ordered residues", "cat"],
 "data": [
  ["ATPKGYEPDAS [OTC_Y223]", "No"],
  ["NTADFYDLFGG [PTPN11_Y63_G60A_YF]", "Yes"],
  ["NCLRQYVAGRF [CRB1_Y711_E710Q]", "No"],
  ["QRCYVYYYSYL [PTEN_Y176_R173C]", "Yes"],
  ["EDAHHYLCKEV [JAK2_Y382_A377E]", "Yes"],
  ["PLKALYLQQRP [ATM_Y2969]", "Yes"],
  ["SVTCAYSPALN [TP53_Y126_T125A]", "Yes"],
  ["SHSMRYFDTAV [HLA-C_Y31]", "No"]
]}

###

Recorded phosphorylation enrichment values for a group of sequences are listed next.
# Test system: Fer (mouse)
# assay summary: phosphorylation enrichment, bacterial display (enrichment ratio); higher = better substrate or ligand; peptides without Tyr show the background
observation type: phosphorylation enrichment

{"columns": ["ordered residues", "numeric result"],
 "data": [
  ["SVSVNYGDQVQ [GRAP_Y101]", 0.442],
  ["YEEDSYSHIMA [FDPS_Y388]", 1.48],
  ["SDFSRYARTSI [TERT_Y949_S948R_YF]", 0.358],
  ["GLPQTYCVSGP [DYSF_Y1684]", 0.559],
  ["ITLPIYTKESE [ANK2_Y1455]", 0.485],
  ["LNPFIYSLRNC [OR1A2_Y288_W293C]", 1],
  ["NTGDDYDLFGG [PTPN11_Y63_Y62D_YF]", 0.623],
  ["KKEGPYDVVVL [PARK7_Y67]", 6.5],
  ["PLKALYLQQRP [ATM_Y2969]", 0.764],
  ["SKHRLYSDLQT [PTCHD1_Y84]", 0.654],
  ["GGGGSYNNFGN [HNRNPA1_Y312_D314N]", 0.378],
  ["GLETSYIEDNC [PAH_Y24_Q20L]", 0.466]
]}

###

# tgt: MERTK (UniProt Q12866)
# Sequence (Q12866 whole entry, looked up): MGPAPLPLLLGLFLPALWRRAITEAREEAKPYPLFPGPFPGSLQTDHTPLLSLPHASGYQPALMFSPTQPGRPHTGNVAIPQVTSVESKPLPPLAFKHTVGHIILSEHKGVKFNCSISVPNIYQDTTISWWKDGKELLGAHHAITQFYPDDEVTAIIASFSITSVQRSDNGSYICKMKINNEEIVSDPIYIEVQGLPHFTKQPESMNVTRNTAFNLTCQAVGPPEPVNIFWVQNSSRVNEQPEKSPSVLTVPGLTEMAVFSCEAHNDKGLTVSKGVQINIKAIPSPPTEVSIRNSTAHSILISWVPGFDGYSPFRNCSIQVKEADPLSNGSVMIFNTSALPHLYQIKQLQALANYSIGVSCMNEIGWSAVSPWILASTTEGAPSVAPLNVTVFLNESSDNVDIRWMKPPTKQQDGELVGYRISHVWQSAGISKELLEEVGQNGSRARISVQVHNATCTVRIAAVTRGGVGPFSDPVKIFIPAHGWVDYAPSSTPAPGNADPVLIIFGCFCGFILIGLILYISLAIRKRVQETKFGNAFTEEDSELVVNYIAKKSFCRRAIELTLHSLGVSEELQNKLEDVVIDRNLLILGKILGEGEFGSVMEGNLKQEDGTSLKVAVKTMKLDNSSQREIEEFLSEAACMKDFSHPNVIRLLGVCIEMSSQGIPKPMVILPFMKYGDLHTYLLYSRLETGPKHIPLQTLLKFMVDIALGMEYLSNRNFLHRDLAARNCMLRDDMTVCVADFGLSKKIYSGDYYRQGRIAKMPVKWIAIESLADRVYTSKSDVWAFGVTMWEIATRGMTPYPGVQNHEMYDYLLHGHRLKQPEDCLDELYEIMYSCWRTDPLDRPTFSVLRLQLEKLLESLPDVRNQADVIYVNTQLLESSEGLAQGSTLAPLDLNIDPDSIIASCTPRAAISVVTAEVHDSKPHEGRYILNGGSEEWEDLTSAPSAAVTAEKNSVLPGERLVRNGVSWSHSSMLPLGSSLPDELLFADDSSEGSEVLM
# assay summary: phosphorylation enrichment, bacterial display (enrichment ratio); higher = better substrate or ligand; peptides without Tyr show the background
observation type: phosphorylation enrichment

{"columns": ["ordered residues", "observation type", "numeric result"],
 "data": [
  ["VEYAKYGSLQG [RET_Y809_R813Q]", "phosphorylation enrichment", 0.418],
  ["EPNSRYTCKLE [USH2A_Y3745_Y3747C]", "phosphorylation enrichment", 0.497],
  ["KKHIPHREHKS [CSNK1G2_Y206_Y206H]", "phosphorylation enrichment", 1.42],
  ["LARDIYKNDFF [ROS1_Y2110_YF]", "phosphorylation enrichment", 1.57],
  ["YGSSSYRGAGG [RPA2_Y14_G15R]", "phosphorylation enrichment", 0.369],
  ["SFGESYDNSKS [MAN1B1_Y60_N59S]", "phosphorylation enrichment", 0.502],
  ["KRYRIYHLAIS [BRCA2_Y3009_T3013I]", "phosphorylation enrichment", 0.62],
  ["NFFEFYVDDPL [GCHFR_Y48_P53L_YF]", "phosphorylation enrichment", 0.413],
  ["PLDGGYFTLQI [TP53_Y327_E326G]", "phosphorylation enrichment", 0.5],
  ["GLPQTYCVSGP [DYSF_Y1684]", "phosphorylation enrichment", 0.605]
]}
